target: Sodium- and chloride-dependent GABA transporter 1 (Mus musculus) (UniProt P31648); test: Inhibition of NO711 binding to mouse GAT1 expressed in HEK293 cell membranes assessed as residual binding at 1 uM preincubated for 4 hrs followed by NO711 addition and measured after 40 mins by LC-ESI-MS/MS analysis relative to control
measurementLabel: Activity (%)

compound="O=C(O)[C@H]1CNC[C@@H](CN/N=C/c2cccs2)C1 (racemic)" testsystem="Sodium- and chloride-dependent GABA transporter 1 (Mus musculus) (UniProt P31648)" unitsofmeasure=% censoringsign== endpointvalue=67
compound="O=C(O)[C@H]1CNC[C@@H](CN/N=C/c2ccc(-c3ccccc3)o2)C1 (racemic)" testsystem="Sodium- and chloride-dependent GABA transporter 1 (Mus musculus) (UniProt P31648)" unitsofmeasure=% censoringsign== endpointvalue=68
compound="O=C(O)[C@H]1CNC[C@@H](CCN/N=C/c2cccn2-c2ccc(C(F)(F)F)cc2)C1 (racemic)" testsystem="Sodium- and chloride-dependent GABA transporter 1 (Mus musculus) (UniProt P31648)" unitsofmeasure=% censoringsign== endpointvalue=74
compound="O=C(O)[C@H]1CNC[C@@H](CN/N=C/c2cccc(-c3ccccc3)c2)C1 (racemic)" testsystem="Sodium- and chloride-dependent GABA transporter 1 (Mus musculus) (UniProt P31648)" unitsofmeasure=% censoringsign== endpointvalue=52
compound="O=C(O)[C@H]1CNC[C@@H](CN/N=C/c2ccccc2-c2cccnc2)C1 (racemic)" testsystem="Sodium- and chloride-dependent GABA transporter 1 (Mus musculus) (UniProt P31648)" unitsofmeasure=% censoringsign== endpointvalue=93
compound=Cc1ccsc1-c1ccccc1C=O testsystem="Sodium- and chloride-dependent GABA transporter 1 (Mus musculus) (UniProt P31648)" unitsofmeasure=% censoringsign== endpointvalue=105
compound="O=C(O)[C@H]1CNC[C@H](CN/N=C/c2ccc(C#Cc3ccccc3)s2)C1 (racemic)" testsystem="Sodium- and chloride-dependent GABA transporter 1 (Mus musculus) (UniProt P31648)" unitsofmeasure=% censoringsign=> endpointvalue=50
compound=O=Cc1ccccc1-c1cccnc1 testsystem="Sodium- and chloride-dependent GABA transporter 1 (Mus musculus) (UniProt P31648)" unitsofmeasure=% censoringsign== endpointvalue=119
compound=Cn1cnnc1Sc1ccc(C=O)o1 testsystem="Sodium- and chloride-dependent GABA transporter 1 (Mus musculus) (UniProt P31648)" unitsofmeasure=% censoringsign== endpointvalue=86
compound="O=C(O)[C@H]1CNC[C@H](CN/N=C/c2cccn2-c2ccc(C(F)(F)F)cc2)C1 (racemic)" testsystem="Sodium- and chloride-dependent GABA transporter 1 (Mus musculus) (UniProt P31648)" unitsofmeasure=% censoringsign=> endpointvalue=50

###

Recorded Activity by entry
target: Sodium- and chloride-dependent GABA transporter 1 (Mus musculus) (UniProt P31648); test: Inhibition of NO711 binding to mouse GAT1 expressed in HEK293 cell membranes assessed as residual binding at 1 uM preincubated for 4 hrs followed by NO711 addition and measured after 40 mins by LC-ESI-MS/MS analysis relative to control
measurementLabel: Activity (%)

compound=O=Cc1ccc(-c2cc(C(F)(F)F)ccc2Cl)o1 testsystem="Sodium- and chloride-dependent GABA transporter 1 (Mus musculus) (UniProt P31648)" unitsofmeasure=% censoringsign== endpointvalue=88
compound="O=C(O)[C@H]1CNC[C@@H](CN/N=C/c2ccccc2-c2cc(F)cc(F)c2)C1 (racemic)" testsystem="Sodium- and chloride-dependent GABA transporter 1 (Mus musculus) (UniProt P31648)" unitsofmeasure=% censoringsign== endpointvalue=90
compound="O=C(O)[C@H]1CNC[C@@H](CN/N=C/c2ccc[nH]2)C1 (racemic)" testsystem="Sodium- and chloride-dependent GABA transporter 1 (Mus musculus) (UniProt P31648)" unitsofmeasure=% censoringsign== endpointvalue=89
compound="Cc1ccsc1-c1sc(/C=N/NCC[C@H]2CNC[C@H](C(=O)O)C2)cc1C (racemic)" testsystem="Sodium- and chloride-dependent GABA transporter 1 (Mus musculus) (UniProt P31648)" unitsofmeasure=% censoringsign=> endpointvalue=50
compound="O=C(O)[C@H]1CNC[C@H](CCN/N=C/c2cccn2-c2ccc(C(F)(F)F)cc2)C1 (racemic)" testsystem="Sodium- and chloride-dependent GABA transporter 1 (Mus musculus) (UniProt P31648)" unitsofmeasure=% censoringsign=> endpointvalue=50
